Please provide measured viability, T/C for the entries that follow.
Test system: 817829-284-R-J1-PDC multi-cell spheroid viability
test.details: Anticancer human tumor 817829-284-R-J1-PDC patient-derived colon adenocarcinoma cell line growth inhibition [PI3K]
experimental.conditions: second compound 0.01 µM; first compound 0.001 µM; active compounds read low
Answer format: numeric, % implied, no suffix.

Reported viability, T/C of CC(=O)c1c(C)c2cnc(Nc3ccc(N4CCNCC4)cn3)nc2n(C2CCCC2)c1=O + CC(Nc1ccc2c(c1)OCCn1cc(N3C(=O)OCC3C(F)F)nc1-2)C(N)=O : 74.5

Reported viability, T/C of Cn1ncnc1[C@H]1c2n[nH]c(=O)c3cc(F)cc(c23)N[C@@H]1c1ccc(F)cc1 + CC(Nc1ccc2c(c1)OCCn1cc(N3C(=O)OCC3C(F)F)nc1-2)C(N)=O : 66

Reported viability, T/C of CC(C)n1nc(-c2ccc3oc(N)nc3c2)c2c(N)ncnc21 + COc1c(OCCCN2CCOCC2)ccc2c3n(c(=NC(=O)c4cnc(N)nc4)nc12)CCN3 : 83.3

Reported viability, T/C of CC(C)n1nc(-c2ccc3oc(N)nc3c2)c2c(N)ncnc21 + CC(Nc1ccc2c(c1)OCCn1cc(N3C(=O)OCC3C(F)F)nc1-2)C(N)=O : 63.8

Reported viability, T/C of CC(=O)c1c(C)c2cnc(Nc3ccc(N4CCNCC4)cn3)nc2n(C2CCCC2)c1=O + COc1c(OCCCN2CCOCC2)ccc2c3n(c(=NC(=O)c4cnc(N)nc4)nc12)CCN3 : 60

---

Please provide measured viability, T/C for the entries that follow.
Tested on: 817829-284-R-J1-PDC multi-cell spheroid viability
test.details: Anticancer human tumor 817829-284-R-J1-PDC cell line growth inhibition [PI3K];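 note: spheroids exposed to agents for seven days before readout; percent of vehicle DMSO control viability which is 100%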
experimental.conditions: second compound 1 µM; first compound 0.0316 µM; active compounds read low
Answer format: numeric, % implied, no suffix.

# value of viability, T/C, 817829-284-R-J1-PDC multi-cell spheroid viability, item Cn1ncnc1[C@H]1c2n[nH]c(=O)c3cc(F)cc(c23)N[C@@H]1c1ccc(F)cc1 + Cc1nc(NC(=O)N2CCCC2C(N)=O)sc1-c1ccnc(C(C)(C)C(F)(F)F)c1 = 70.2

# value of viability, T/C, 817829-284-R-J1-PDC multi-cell spheroid viability, item CCCS(=O)(=O)Nc1ccc(F)c(C(=O)c2c[nH]c3ncc(-c4ccc(Cl)cc4)cc23)c1F + CC(Nc1ccc2c(c1)OCCn1cc(N3C(=O)OCC3C(F)F)nc1-2)C(N)=O = 55.9

# value of viability, T/C, 817829-284-R-J1-PDC multi-cell spheroid viability, item CC(Cn1ccc(-c2ccc(C#N)c(Cl)c2)n1)NC(=O)c1cc(C(C)O)[nH]n1 (stereo unspecified) + CC(Nc1ncnc2nc[nH]c12)c1cc2cccc(Cl)c2c(=O)n1-c1ccccc1 = 83.9

# value of viability, T/C, 817829-284-R-J1-PDC multi-cell spheroid viability, item CC1(C)CCC(Nc2ncc(C(F)(F)F)c(-c3c[nH]c4c(P(C)(C)=O)c(C#N)ccc34)n2)CN1 (stereo unspecified) + CC(Nc1ccc2c(c1)OCCn1cc(N3C(=O)OCC3C(F)F)nc1-2)C(N)=O = 21.7

# value of viability, T/C, 817829-284-R-J1-PDC multi-cell spheroid viability, item Cn1ncc(Cl)c1-c1cc(C(=O)NC(CN)Cc2cccc(F)c2)sc1Cl (stereo unspecified) + COc1c(OCCCN2CCOCC2)ccc2c3n(c(=NC(=O)c4cnc(N)nc4)nc12)CCN3 = 9.57

# value of viability, T/C, 817829-284-R-J1-PDC multi-cell spheroid viability, item CCCS(=O)(=O)Nc1ccc(F)c(C(=O)c2c[nH]c3ncc(-c4ccc(Cl)cc4)cc23)c1F + COc1c(OCCCN2CCOCC2)ccc2c3n(c(=NC(=O)c4cnc(N)nc4)nc12)CCN3 = 10

# value of viability, T/C, 817829-284-R-J1-PDC multi-cell spheroid viability, item CCN1CCN(Cc2ccc(Nc3ncc(F)c(-c4cc(F)c5nc(C)n(C(C)C)c5c4)n3)nc2)CC1 + COc1c(OCCCN2CCOCC2)ccc2c3n(c(=NC(=O)c4cnc(N)nc4)nc12)CCN3 = 9.55

# value of viability, T/C, 817829-284-R-J1-PDC multi-cell spheroid viability, item CC(=O)c1c(C)c2cnc(Nc3ccc(N4CCNCC4)cn3)nc2n(C2CCCC2)c1=O + COc1c(OCCCN2CCOCC2)ccc2c3n(c(=NC(=O)c4cnc(N)nc4)nc12)CCN3 = 11.6

# value of viability, T/C, 817829-284-R-J1-PDC multi-cell spheroid viability, item CC1(C)CCC(CN2CCN(c3ccc(C(=O)NS(=O)(=O)c4ccc(NCC5CCOCC5)c([N+](=O)[O-])c4)c(Oc4cnc5[nH]ccc5c4)c3)CC2)=C(c2ccc(Cl)cc2)C1 + CC(Nc1ccc2c(c1)OCCn1cc(N3C(=O)OCC3C(F)F)nc1-2)C(N)=O = 77.2

# value of viability, T/C, 817829-284-R-J1-PDC multi-cell spheroid viability, item CNC(=O)c1ccc(N2C(=S)N(c3ccc(C#N)c(C(F)(F)F)c3)C(=O)C2(C)C)cc1F + COc1c(OCCCN2CCOCC2)ccc2c3n(c(=NC(=O)c4cnc(N)nc4)nc12)CCN3 = 11.2

# value of viability, T/C, 817829-284-R-J1-PDC multi-cell spheroid viability, item Cn1nccc1Nc1nccc(-c2ccn(C(CO)c3ccc(Cl)c(F)c3)c(=O)c2)n1 (stereo unspecified) + Cc1nc(NC(=O)N2CCCC2C(N)=O)sc1-c1ccnc(C(C)(C)C(F)(F)F)c1 = 68.6

---

Tested on: 817829-284-R-J1-PDC multi-cell spheroid viability
test.details: Anticancer human tumor 817829-284-R-J1-PDC cell line growth inhibition [PI3K];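 note: spheroids exposed to agents for seven days before readout; percent of vehicle DMSO control viability which is 100%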
experimental.conditions: second compound 0.316 µM; first compound 0.1 µM; active compounds read low
Lab note: compare viability, T/C with 50%, writing T if less and F if equal or more.

[in] Is 50% strictly greater than the compound's reported viability, T/C? compound: CC(C)NCC(C(=O)N1CCN(c2ncnc3c2C(C)CC3O)CC1)c1ccc(Cl)cc1 (stereo unspecified) + COc1c(OCCCN2CCOCC2)ccc2c3n(c(=NC(=O)c4cnc(N)nc4)nc12)CCN3
[out] T

[in] Is 50% strictly greater than the compound's reported viability, T/C? compound: CC(C)n1nc(-c2ccc3oc(N)nc3c2)c2c(N)ncnc21 + CC(Nc1ccc2c(c1)OCCn1cc(N3C(=O)OCC3C(F)F)nc1-2)C(N)=O
[out] T

[in] Is 50% strictly greater than the compound's reported viability, T/C? compound: Cn1ncc(Cl)c1-c1cc(C(=O)NC(CN)Cc2cccc(F)c2)sc1Cl (stereo unspecified) + CC(Nc1ccc2c(c1)OCCn1cc(N3C(=O)OCC3C(F)F)nc1-2)C(N)=O
[out] T

[in] Is 50% strictly greater than the compound's reported viability, T/C? compound: C[C@@H](NC(=O)c1ncnc(N)c1Cl)c1ncc(C(=O)Nc2cc(C(F)(F)F)c(Cl)cn2)s1 + Cc1nc(NC(=O)N2CCCC2C(N)=O)sc1-c1ccnc(C(C)(C)C(F)(F)F)c1
[out] F

[in] Is 50% strictly greater than the compound's reported viability, T/C? compound: CNC(=O)c1ccc(N2C(=S)N(c3ccc(C#N)c(C(F)(F)F)c3)C(=O)C2(C)C)cc1F + CC(Nc1ccc2c(c1)OCCn1cc(N3C(=O)OCC3C(F)F)nc1-2)C(N)=O
[out] F

[in] Is 50% strictly greater than the compound's reported viability, T/C? compound: CC(Cn1ccc(-c2ccc(C#N)c(Cl)c2)n1)NC(=O)c1cc(C(C)O)[nH]n1 (stereo unspecified) + Cc1nc(NC(=O)N2CCCC2C(N)=O)sc1-c1ccnc(C(C)(C)C(F)(F)F)c1
[out] F

[in] Is 50% strictly greater than the compound's reported viability, T/C? compound: Cn1ncc(Cl)c1-c1cc(C(=O)NC(CN)Cc2cccc(F)c2)sc1Cl (stereo unspecified) + COc1c(OCCCN2CCOCC2)ccc2c3n(c(=NC(=O)c4cnc(N)nc4)nc12)CCN3
[out] T

[in] Is 50% strictly greater than the compound's reported viability, T/C? compound: Cn1nccc1Nc1nccc(-c2ccn(C(CO)c3ccc(Cl)c(F)c3)c(=O)c2)n1 (stereo unspecified) + CC(Nc1ccc2c(c1)OCCn1cc(N3C(=O)OCC3C(F)F)nc1-2)C(N)=O
[out] F

[in] Is 50% strictly greater than the compound's reported viability, T/C? compound: C=CC(=O)N1CCN(c2nc(=O)n(-c3c(C)ccnc3C(C)C)c3nc(-c4c(O)cccc4F)c(F)cc23)C(C)C1 (stereo unspecified) + Cc1nc(NC(=O)N2CCCC2C(N)=O)sc1-c1ccnc(C(C)(C)C(F)(F)F)c1
[out] F
